# tgt: Endothelin receptor type B (Homo sapiens)
# procedureDetails: Antagonist activity towards human recombinant Endothelin B receptor expressed in chinese hamster ovary (CHO) cells determined using [125I]ET1 as radioligand
# pIC50 annotations
When answering, recall that pIC50 equals minus log10 of the concentration in mol/L, and write that number alone.

Here's what some known entries look like.
{"molecule": "COc1ccc(CN2C(=O)CN[C@](c3ccc(C)cc3)([C@H](Oc3nc(C)cc(C)n3)C(=O)O)c3ccccc32)cc1", "obsValue": 6.74}
{"molecule": "Cc1cc(C)nc(O[C@H](C(=O)O)[C@@]2(c3ccccc3)NCC(=O)N(CC(=O)O)c3ccccc32)n1 (racemic)", "obsValue": 6.25}
{"molecule": "Cc1cc(C)nc(O[C@H](C(=O)O)[C@@]2(c3ccccc3)NCC(=O)N(CCN3CCOCC3)c3ccccc32)n1 (racemic)", "obsValue": 6.13}
{"molecule": "Cc1cc(C)nc(O[C@H](C(=O)O)[C@@]2(c3ccccc3)NCC(=O)N(Cc3cccc(Cl)c3)c3ccccc32)n1 (racemic)", "obsValue": 7.67}
{"molecule": "Cc1cc(C)nc(O[C@H](C(=O)O)[C@@]2(c3ccccc3)NCC(=O)N(Cc3ccccc3OC(F)(F)F)c3ccccc32)n1 (racemic)", "obsValue": 7.13}
{"molecule": "Cc1cc(C)nc(O[C@H](C(=O)O)[C@@]2(c3ccccc3)NCC(=O)N(Cc3ccccc3C(F)(F)F)c3ccccc32)n1 (racemic)", "obsValue": 7.65}

Now turn to the next molecule.
(Q) Which measured pIC50 value corresponds to COc1cc(OC)cc(O[C@H](C(=O)O)[C@@]2(c3ccccc3)NCC(=O)N(C)c3ccccc32)c1 (racemic) ?
(A) 5.20

---

# tgt: Endothelin receptor type B (Homo sapiens, UniProt P24530)
# Sequence (P24530 whole entry): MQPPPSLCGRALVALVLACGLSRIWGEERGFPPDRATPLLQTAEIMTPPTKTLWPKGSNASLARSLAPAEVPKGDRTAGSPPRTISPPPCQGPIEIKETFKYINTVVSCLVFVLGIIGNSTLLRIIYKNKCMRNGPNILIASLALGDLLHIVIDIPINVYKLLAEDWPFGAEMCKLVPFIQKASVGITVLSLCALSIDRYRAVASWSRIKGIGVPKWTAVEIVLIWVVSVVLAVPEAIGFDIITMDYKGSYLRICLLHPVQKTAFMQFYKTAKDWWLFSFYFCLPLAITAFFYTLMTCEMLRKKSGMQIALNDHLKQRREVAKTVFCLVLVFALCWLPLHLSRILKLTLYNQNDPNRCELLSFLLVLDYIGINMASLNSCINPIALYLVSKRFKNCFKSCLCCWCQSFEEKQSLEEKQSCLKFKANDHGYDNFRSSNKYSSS
# procedureDetails: Antagonist activity towards human recombinant Endothelin B receptor expressed in chinese hamster ovary (CHO) cells determined using [125I]ET1 as radioligand
measuredEndpoint: IC50 (nM)
Provide only the numeric value, understood in nM.

Here's what some known entries look like.
{"molecule": "COc1ccc(CN2C(=O)CN[C@](c3cccc(C)c3)([C@H](Oc3nc(C)cc(C)n3)C(=O)O)c3ccccc32)cc1 (racemic)", "tgt": "Endothelin receptor type B (Homo sapiens, UniProt P24530)", "measuredEndpoint": "IC50", "obsValue": 50.7}
{"molecule": "Cc1cc(C)nc(O[C@H](C(=O)O)[C@@]2(c3ccccc3)NCC(=O)N(CC3CC3)c3ccccc32)n1 (racemic)", "tgt": "Endothelin receptor type B (Homo sapiens, UniProt P24530)", "measuredEndpoint": "IC50", "obsValue": 87.8}
{"molecule": "CN1C(=O)CN[C@](c2ccccc2)([C@H](Oc2ncc(Br)cn2)C(=O)O)c2ccccc21 (racemic)", "tgt": "Endothelin receptor type B (Homo sapiens, UniProt P24530)", "measuredEndpoint": "IC50", "obsValue": 9480}
{"molecule": "COc1cccc(O[C@H](C(=O)O)[C@@]2(c3ccccc3)NCC(=O)N(Cc3c(Cl)cccc3Cl)c3ccccc32)c1 (racemic)", "tgt": "Endothelin receptor type B (Homo sapiens, UniProt P24530)", "measuredEndpoint": "IC50", "obsValue": 1470}
{"molecule": "CC(C)c1ccc(O[C@H](C(=O)O)[C@@]2(c3ccccc3)NCC(=O)N(Cc3c(Cl)cccc3Cl)c3ccccc32)cc1 (racemic)", "tgt": "Endothelin receptor type B (Homo sapiens, UniProt P24530)", "measuredEndpoint": "IC50", "obsValue": 8620}

Now turn to the next molecule.
(Q) Which measured IC50 value corresponds to CCCCc1cccc([C@]2([C@H](Oc3nc(C)cc(C)n3)C(=O)O)NCC(=O)N(Cc3c(F)cccc3Cl)c3ccccc32)c1 (racemic) ?
(A) 7.1

---

Record: pIC50 reported on UniProt:P11712.
Sequence (P11712 whole entry): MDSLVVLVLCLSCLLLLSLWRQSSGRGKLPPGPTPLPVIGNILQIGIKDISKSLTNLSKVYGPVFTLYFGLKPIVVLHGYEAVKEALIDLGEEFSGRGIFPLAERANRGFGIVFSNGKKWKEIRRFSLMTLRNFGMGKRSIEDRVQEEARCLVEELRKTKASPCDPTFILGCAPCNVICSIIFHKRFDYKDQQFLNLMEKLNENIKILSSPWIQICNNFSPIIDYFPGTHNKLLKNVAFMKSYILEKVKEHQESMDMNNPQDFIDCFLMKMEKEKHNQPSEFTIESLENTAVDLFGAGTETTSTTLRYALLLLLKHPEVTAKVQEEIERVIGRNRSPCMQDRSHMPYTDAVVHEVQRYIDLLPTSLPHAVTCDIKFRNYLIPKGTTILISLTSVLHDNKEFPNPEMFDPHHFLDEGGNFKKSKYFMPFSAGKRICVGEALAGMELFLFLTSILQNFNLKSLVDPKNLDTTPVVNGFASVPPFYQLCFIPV
When answering, recall that pIC50 equals minus log10 of the concentration in mol/L, and write that number alone.

Here's what some known entries look like.
{"molecule": "Cc1cc(C)cc(O[C@H](C(=O)O)[C@@]2(c3ccccc3)NCC(=O)N(Cc3c(F)cc(F)cc3F)c3ccccc32)c1 (racemic)", "measuredEndpoint": "pIC50", "obsValue": 4.82}
{"molecule": "CCCCc1cccc([C@]2([C@H](Oc3nc(C)cc(C)n3)C(=O)O)NCC(=O)N(Cc3c(F)cc(F)cc3F)c3ccccc32)c1 (racemic)", "measuredEndpoint": "pIC50", "obsValue": 4.82}

(Q) Which measured pIC50 value corresponds to Cc1cc(C)nc(O[C@H](C(=O)O)[C@@]2(c3cccc(-c4ccccc4)c3)NCC(=O)N(Cc3c(F)cc(F)cc3F)c3ccccc32)n1 (racemic) ?
(A) 4.55

---

Record: pIC50 reported on UniProt P08684.
Sequence (P08684 whole entry): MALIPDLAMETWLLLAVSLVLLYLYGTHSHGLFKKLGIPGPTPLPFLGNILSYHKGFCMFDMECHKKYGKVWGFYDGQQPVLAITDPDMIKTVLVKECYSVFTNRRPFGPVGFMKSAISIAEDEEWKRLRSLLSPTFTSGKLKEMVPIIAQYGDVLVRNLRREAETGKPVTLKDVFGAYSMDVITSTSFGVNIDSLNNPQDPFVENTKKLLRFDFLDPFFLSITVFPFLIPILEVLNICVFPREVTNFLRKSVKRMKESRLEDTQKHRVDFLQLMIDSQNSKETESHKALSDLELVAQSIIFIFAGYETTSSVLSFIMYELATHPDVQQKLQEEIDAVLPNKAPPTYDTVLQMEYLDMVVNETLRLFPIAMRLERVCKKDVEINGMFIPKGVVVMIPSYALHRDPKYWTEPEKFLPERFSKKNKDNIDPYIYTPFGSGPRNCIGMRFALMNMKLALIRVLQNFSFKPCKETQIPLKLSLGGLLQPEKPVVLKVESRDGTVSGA
When answering, recall that pIC50 equals minus log10 of the concentration in mol/L, and write that number alone.

Here's what some known entries look like.
{"compound": "Cc1cc(C)nc(O[C@H](C(=O)O)[C@@]2(c3ccccc3)NCC(=O)N(Cc3c(F)cc(F)cc3F)c3ccccc32)n1 (racemic)", "tgt": "UniProt P08684", "obsValue": 4.39}
{"compound": "CCCCc1cccc([C@]2([C@H](Oc3nc(C)cc(C)n3)C(=O)O)NCC(=O)N(Cc3c(F)cc(F)cc3F)c3ccccc32)c1 (racemic)", "tgt": "UniProt P08684", "obsValue": 5.30}
{"compound": "Cc1cc(C)cc(O[C@H](C(=O)O)[C@@]2(c3ccccc3)NCC(=O)N(Cc3c(F)cc(F)cc3F)c3ccccc32)c1 (racemic)", "tgt": "UniProt P08684", "obsValue": 4.85}

Now turn to the next compound.
(Q) Which measured pIC50 value corresponds to Cc1cc(C)nc(O[C@H](C(=O)O)[C@@]2(c3cccc(-c4ccccc4)c3)NCC(=O)N(Cc3c(F)cc(F)cc3F)c3ccccc32)n1 (racemic) ?
(A) 5.15

---

# tgt: Endothelin receptor type B (Homo sapiens, UniProt P24530)
# Sequence (P24530 whole entry): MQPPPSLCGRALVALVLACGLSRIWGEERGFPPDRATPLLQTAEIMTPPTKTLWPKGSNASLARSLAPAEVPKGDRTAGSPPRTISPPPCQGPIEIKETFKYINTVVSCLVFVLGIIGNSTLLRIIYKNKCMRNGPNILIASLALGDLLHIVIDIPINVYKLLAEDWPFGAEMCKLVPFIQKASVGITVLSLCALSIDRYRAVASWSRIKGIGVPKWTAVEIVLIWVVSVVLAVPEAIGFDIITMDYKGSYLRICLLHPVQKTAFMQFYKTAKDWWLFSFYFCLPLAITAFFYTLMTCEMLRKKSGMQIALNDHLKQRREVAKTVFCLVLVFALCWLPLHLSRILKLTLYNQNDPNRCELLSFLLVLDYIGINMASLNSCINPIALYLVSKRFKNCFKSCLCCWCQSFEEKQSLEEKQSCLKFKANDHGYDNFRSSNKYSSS
# procedureDetails: Antagonist activity towards human recombinant Endothelin B receptor expressed in chinese hamster ovary (CHO) cells determined using [125I]ET1 as radioligand
Rule for this label: y means IC50 is less than 80 nM; n means IC50 is at least 80 nM.

{"molecule": "COc1ccc(CN2C(=O)CN[C@](c3cc(C)cc(C)c3)([C@H](Oc3nc(C)cc(C)n3)C(=O)O)c3ccccc32)cc1 (racemic)", "answerLabel": "n"}
{"molecule": "CCCCC[C@]1([C@H](Oc2nc(C)cc(C)n2)C(=O)O)NCC(=O)N(Cc2ccc(OC)cc2)c2ccccc21 (racemic)", "answerLabel": "y"}
{"molecule": "Cc1cc(C)nc(O[C@H](C(=O)O)[C@@]2(c3ccccc3)NCC(=O)N(CCCc3ccccc3)c3ccccc32)n1 (racemic)", "answerLabel": "y"}
{"molecule": "Cc1cc(C)nc(O[C@H](C(=O)O)[C@@]2(c3ccccc3)NCCOc3ccccc32)n1 (racemic)", "answerLabel": "n"}
{"molecule": "Cc1cc(C)nc(O[C@H](C(=O)O)[C@@]2(c3ccccc3)NCC(=O)N(CCC3CCCCC3)c3ccccc32)n1 (racemic)", "answerLabel": "n"}
{"molecule": "Cc1ccc(C)c(O[C@H](C(=O)O)[C@@]2(c3ccccc3)NCC(=O)N(Cc3c(Cl)cccc3Cl)c3ccccc32)c1 (racemic)", "answerLabel": "n"}

(Q) Lab note: confirm whether the reported IC50 for this molecule is below 80 nM, equality not counting. molecule: Cc1cc(C)nc(O[C@H](C(=O)O)[C@@]2(c3ccccc3)NCC(=O)N(Cc3cccc(F)c3F)c3ccccc32)n1 (racemic)
(A) y

(Q) Next: Cc1cc(C)nc(O[C@H](C(=O)O)[C@@]2(c3ccccc3)NCC(=O)N(Cc3ccccc3C)c3ccccc32)n1 (racemic)
(A) y
